Reference source for all entries: the kinase profiling compilation of Christmann-Franck et al. (2016)

- target_system: EPHA7 (human) (UniProt Q15375)
- Sequence (Q15375 whole entry, looked up): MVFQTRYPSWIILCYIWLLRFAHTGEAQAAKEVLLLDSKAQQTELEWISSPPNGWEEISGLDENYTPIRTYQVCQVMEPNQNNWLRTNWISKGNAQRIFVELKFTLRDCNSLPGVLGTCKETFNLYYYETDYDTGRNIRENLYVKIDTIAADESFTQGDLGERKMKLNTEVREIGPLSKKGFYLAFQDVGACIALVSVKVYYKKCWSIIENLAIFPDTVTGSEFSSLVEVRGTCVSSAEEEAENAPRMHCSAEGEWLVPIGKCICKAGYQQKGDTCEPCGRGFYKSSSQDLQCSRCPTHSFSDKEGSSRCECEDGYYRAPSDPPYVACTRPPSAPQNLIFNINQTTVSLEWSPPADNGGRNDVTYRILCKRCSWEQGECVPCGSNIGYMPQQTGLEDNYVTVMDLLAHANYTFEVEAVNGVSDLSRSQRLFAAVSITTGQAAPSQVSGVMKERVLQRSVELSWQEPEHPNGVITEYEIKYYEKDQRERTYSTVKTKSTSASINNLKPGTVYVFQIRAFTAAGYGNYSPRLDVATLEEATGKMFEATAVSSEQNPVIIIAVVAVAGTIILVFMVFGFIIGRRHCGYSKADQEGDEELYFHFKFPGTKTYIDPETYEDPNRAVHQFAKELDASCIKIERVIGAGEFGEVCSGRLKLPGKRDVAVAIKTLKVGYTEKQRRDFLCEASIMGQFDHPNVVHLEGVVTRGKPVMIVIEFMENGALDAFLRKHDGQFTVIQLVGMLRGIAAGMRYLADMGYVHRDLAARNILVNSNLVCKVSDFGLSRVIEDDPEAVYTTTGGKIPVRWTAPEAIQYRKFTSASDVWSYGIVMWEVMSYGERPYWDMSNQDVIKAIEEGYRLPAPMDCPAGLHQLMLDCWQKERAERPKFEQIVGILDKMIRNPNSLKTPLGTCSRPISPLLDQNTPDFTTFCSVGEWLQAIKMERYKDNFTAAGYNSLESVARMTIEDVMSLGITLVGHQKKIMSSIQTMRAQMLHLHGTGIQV
- assay_remarks: KINOMEscan competition binding
- condition_notes: compound 10.0 µM
Give measured kinase still bound, per cent of control for each item. Keep answers brief.
Write the numeric value and follow it with the unit.

Prompt: Which kinase still bound, per cent of control is listed for CNC(=O)Nc1ccc(-c2nc(N3CC4CCC(C3)O4)c3cnn(C4CCC5(CC4)OCCO5)c3n2)cc1 ?
Response: 87%

Prompt: Now consider COc1cc(C)c(Sc2cnc(NC(=O)c3ccc(CNC(C)C(C)C)cc3)s2)cc1C(=O)N1CCN(C(C)=O)CC1 (stereo unspecified) .
Response: 100%

Prompt: What do we get for CCCS(=O)(=O)Nc1ccc(F)c(C(=O)c2c[nH]c3ncc(Cl)cc23)c1F ?
Response: 99%

Prompt: Next up: N#Cc1cc(-c2ccnc(Nc3ccc(-n4cnc(-c5cccnc5)n4)cc3)n2)cc(N2CCOCC2)c1
Response: 85%

Prompt: Ok, now Cc1cn(-c2cc(C(=O)Nc3ccc(C)c(NC(=O)c4ccno4)c3)cc(C(F)(F)F)c2)cn1
Response: 100%

Prompt: Here is the next compound: CCOc1cc(N2CCC(O)CC2)ccc1Nc1ncc2c(n1)N(C)c1ccccc1C(=O)N2C
Response: 100%

Prompt: Follow-up entry: COc1cc2c(Nc3ccc(NC(=O)c4ccccc4)cc3)ncnc2cc1OCCCN1CCOCC1
Response: 84%

Prompt: Then this compound: COc1cc2ncnc(Nc3cccc(Cl)c3)c2cc1OC
Response: 46%

Prompt: Same question for CCN(CCO)CCCOc1ccc2c(Nc3cc(CC(=O)Nc4cccc(F)c4)[nH]n3)ncnc2c1 please.
Response: 74%

Prompt: Subsequent entry: CCN1CCN(Cc2ccc(NC(=O)c3ccc(C)c(/C=C/c4cnc5[nH]ccc5c4OC)c3)cc2C(F)(F)F)CC1
Response: 16%

Prompt: Subsequent entry: N#C/C(=C1/Nc2ccccc2S1)c1ccnc(NCCc2cccnc2)n1
Response: 99%

###

- target_system: ACVR2B (human) (UniProt Q13705)
- Sequence (Q13705 whole entry, looked up): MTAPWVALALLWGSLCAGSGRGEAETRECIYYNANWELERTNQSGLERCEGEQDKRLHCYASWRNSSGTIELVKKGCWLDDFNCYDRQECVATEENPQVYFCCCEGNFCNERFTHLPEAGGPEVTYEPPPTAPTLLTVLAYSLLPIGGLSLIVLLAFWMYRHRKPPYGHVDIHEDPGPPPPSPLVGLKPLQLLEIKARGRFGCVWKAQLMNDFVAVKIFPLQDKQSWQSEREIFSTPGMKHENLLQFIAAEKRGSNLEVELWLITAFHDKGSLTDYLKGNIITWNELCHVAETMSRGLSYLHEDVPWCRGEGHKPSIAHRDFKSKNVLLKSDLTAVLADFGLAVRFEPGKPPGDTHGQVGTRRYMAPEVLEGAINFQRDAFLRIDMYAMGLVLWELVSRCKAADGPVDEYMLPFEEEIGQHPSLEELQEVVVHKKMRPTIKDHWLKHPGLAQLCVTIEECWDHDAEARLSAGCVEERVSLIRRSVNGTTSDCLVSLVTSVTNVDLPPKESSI
- assay_remarks: KINOMEscan competition binding
- condition_notes: compound 10.0 µM
Please respond with reported kinase still bound, per cent of control for every item in the list.
Number in %, nothing else.

Prompt: Name the recorded kinase still bound, per cent of control for Cc1cn(-c2cc(C(=O)Nc3ccc(C)c(NC(=O)c4ccno4)c3)cc(C(F)(F)F)c2)cn1 .
Response: 100

Prompt: Consider next the molecule CCc1nc(-c2cccc(C)c2)c(-c2ccnc(NC(=O)c3ccccc3)c2)s1 in the same way.
Response: 17

Prompt: Record: C=CC(=O)Nc1ccc(C(=O)c2sc(Nc3ccc(N4CCN(C)CC4)cc3OC)nc2N)cc1
Response: 100

Prompt: How about this molecule: O=c1[nH]c2ccccc2n1C1CCN(Cc2ccc(-c3nc4cc5[nH]cnc5cc4nc3-c3ccccc3)cc2)CC1
Response: 100

###

Assign kinase still bound, per cent of control to each entry below.
- target_system: CDK11B (human)
- assay_remarks: KINOMEscan competition binding
- condition_notes: compound 10.0 µM
Answer in %, number only, no unit symbol.

Prompt: Which measured kinase still bound, per cent of control value corresponds to COc1ccc(N(C(=O)Oc2cc(C(=O)Nc3cccc(C(F)(F)F)c3)ccc2C)c2ccnc(Nc3ccc(N4CCN(C)CC4)cc3)n2)c(OC)c1 ?
Response: 8.3

Prompt: // query: O=c1[nH]c2ccccc2n1C1CCN(Cc2ccc(-c3nc4cc5[nH]cnc5cc4nc3-c3ccccc3)cc2)CC1
Response: 97

Prompt: COc1cc(C)c(Sc2cnc(NC(=O)c3ccc(CNC(C)C(C)C)cc3)s2)cc1C(=O)N1CCN(C(C)=O)CC1 (centres undefined) , same question.
Response: 100

Prompt: Field entry: COc1cc(N2CCC(C(N)=O)CC2)ccc1Nc1nc(N)c(Cl)c(Nc2ccccc2S(=O)(=O)C(C)C)n1
Response: 100

Prompt: # repeat for CCOc1cc(N2CCC(O)CC2)ccc1Nc1ncc2c(n1)N(C)c1ccccc1C(=O)N2C
Response: 100

Prompt: Next: C=CC(=O)Nc1ccc(C(=O)c2sc(Nc3ccc(N4CCN(C)CC4)cc3OC)nc2N)cc1
Response: 89

Prompt: Here is the next compound: CCN(CCO)CCCOc1ccc2c(Nc3cc(CC(=O)Nc4cccc(F)c4)[nH]n3)ncnc2c1
Response: 6.5

Prompt: How about this compound: CCN1CCN(Cc2ccc(NC(=O)c3ccc(C)c(/C=C/c4cnc5[nH]ccc5c4OC)c3)cc2C(F)(F)F)CC1
Response: 8.5

Prompt: Please do the same for N#C/C(=C1/Nc2ccccc2S1)c1ccnc(NCCc2cccnc2)n1 as well.
Response: 96

Prompt: Subsequent entry: COc1cc2c(Nc3ccc(NC(=O)c4ccccc4)cc3)ncnc2cc1OCCCN1CCOCC1
Response: 16

Prompt: Try this compound too: CC1=C(C(=O)Nc2cc3cn[nH]c3cc2F)C(c2ccc(C(F)(F)F)cc2)CC(=O)N1 (centres undefined)
Response: 89

Prompt: Same again, this time with Cc1cn(-c2cc(C(=O)Nc3ccc(C)c(NC(=O)c4ccno4)c3)cc(C(F)(F)F)c2)cn1
Response: 100

Prompt: // same read-out, input: CCc1nc(-c2cccc(C)c2)c(-c2ccnc(NC(=O)c3ccccc3)c2)s1
Response: 88

Prompt: One more compound: CC(=O)c1c(C)c2cnc(Nc3ccc(N4CCNCC4)cn3)nc2n(C2CCCC2)c1=O
Response: 93
